Overview of reported log K across a group of compounds:
- ASSAY_METHOD_TEXT: Methanol-water partition coefficient, log k of the compound
- Format: physicochemical
READOUT_LABEL: log K

CCCC(C)Sc1cccc(OS(C)(=O)=O)n1 (stereo not drawn)
0.59
CCCCCSc1cccc(OS(C)(=O)=O)n1
0.649
CCSc1cccc(OS(C)(=O)=O)n1
-0.034
CCC(C)Sc1cccc(OS(C)(=O)=O)n1 (stereo not drawn)
0.37
CSc1cccc(OS(C)(=O)=O)n1
0.259
CCCSc1cccc(OS(C)(=O)=O)n1
0.196
CC(C)CSc1cccc(OS(C)(=O)=O)n1
0.399
CS(=O)(=O)Oc1cccc(S(C)(=O)=O)n1
-0.602
CC(C)(C)Sc1cccc(OS(C)(=O)=O)n1
0.277
CS(=O)(=O)Oc1cccc(SC2CCCCC2)n1
0.664
CCS(=O)(=O)c1cccc(OS(C)(=O)=O)n1
-0.358
CS(=O)(=O)Oc1cccc(SC2CCCC2)n1
0.447
CS(=O)(=O)Oc1cccc(SCC2CC2)n1
0.192
CS(=O)(=O)Oc1cccc(S(=O)(=O)c2ccccc2)n1
0.236
CC(C)CCS(=O)(=O)c1cccc(OS(C)(=O)=O)n1
0.576
CS(=O)(=O)Oc1cccc(S(=O)(=O)C2CCCCC2)n1
0.565
CCCCCS(=O)(=O)c1cccc(OS(C)(=O)=O)n1
0.632
CC(C)S(=O)(=O)c1cccc(OS(C)(=O)=O)n1
-0.115
CC(C)Sc1cccc(OS(C)(=O)=O)n1
0.163
CSCCSc1cccc(OS(C)(=O)=O)n1
-0.174
CC(C)(C)CSc1cccc(OS(C)(=O)=O)n1
0.558
CCCC(C)S(=O)(=O)c1cccc(OS(C)(=O)=O)n1 (stereo not drawn)
0.507
CC(C)(C)S(=O)(=O)c1cccc(OS(C)(=O)=O)n1
0.085
CS(=O)(=O)Oc1cccc(Sc2ccccc2)n1
0.268
CS(=O)(=O)Oc1cccc(S(=O)(=O)Cc2ccccc2)n1
0.35
CS(=O)(=O)Oc1cccc(S(=O)(=O)C2CCCC2)n1
0.274
CCC(C)S(=O)(=O)c1cccc(OS(C)(=O)=O)n1 (stereo not drawn)
0.188
CC(C)CS(=O)(=O)c1cccc(OS(C)(=O)=O)n1
0.274
CS(=O)(=O)Oc1cccc(SCc2ccccc2)n1
0.33
CC(C)CCSc1cccc(OS(C)(=O)=O)n1
0.614
CCCCS(=O)(=O)c1cccc(OS(C)(=O)=O)n1
0.293
CCCS(=O)(=O)c1cccc(OS(C)(=O)=O)n1
-0.036
CCCCSc1cccc(OS(C)(=O)=O)n1
0.425

---

- SYSTEM_TESTED: Ace-orthologous acetylcholinesterase (Nephotettix cincticeps) (UniProt Q9NJH6)
- Sequence (Q9NJH6 20-677 limits assumed): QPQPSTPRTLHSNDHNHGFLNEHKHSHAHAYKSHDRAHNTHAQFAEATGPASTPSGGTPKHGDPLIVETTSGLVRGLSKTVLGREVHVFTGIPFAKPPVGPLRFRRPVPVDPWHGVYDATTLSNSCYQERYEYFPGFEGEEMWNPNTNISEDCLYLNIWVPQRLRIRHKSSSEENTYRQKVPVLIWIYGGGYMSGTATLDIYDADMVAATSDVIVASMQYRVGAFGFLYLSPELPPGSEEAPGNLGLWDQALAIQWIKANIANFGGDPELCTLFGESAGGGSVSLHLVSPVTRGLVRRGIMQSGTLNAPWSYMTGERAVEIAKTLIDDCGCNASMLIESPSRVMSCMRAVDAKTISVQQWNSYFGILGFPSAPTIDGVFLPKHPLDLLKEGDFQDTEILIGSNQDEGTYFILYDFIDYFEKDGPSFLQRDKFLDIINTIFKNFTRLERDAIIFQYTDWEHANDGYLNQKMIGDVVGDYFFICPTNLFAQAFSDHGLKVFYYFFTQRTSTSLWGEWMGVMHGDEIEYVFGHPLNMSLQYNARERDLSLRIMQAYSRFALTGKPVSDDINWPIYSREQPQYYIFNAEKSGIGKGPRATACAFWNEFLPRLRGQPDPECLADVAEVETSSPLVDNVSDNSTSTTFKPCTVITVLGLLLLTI
- ASSAY_METHOD_TEXT: Inhibition of susceptible Nephotettix cincticeps Izumi (green rice leafhopper) acetylcholinesterase activity
Please enter Satisfied where log(1/I50) is greater than or equal to 8, and Not satisfied where it is lower.

CCC(C)S(=O)(=O)c1cccc(OS(C)(=O)=O)n1 (stereo unspecified)
Satisfied
CC(C)CS(=O)(=O)c1cccc(OS(C)(=O)=O)n1
Satisfied
CC(C)(C)S(=O)(=O)c1cccc(OS(C)(=O)=O)n1
Not satisfied
CS(=O)(=O)Oc1cccc(S(=O)(=O)C2CCCCC2)n1
Satisfied
